Answer each item with its documented yeast fitness.
B1: tRNA (parent)
chain: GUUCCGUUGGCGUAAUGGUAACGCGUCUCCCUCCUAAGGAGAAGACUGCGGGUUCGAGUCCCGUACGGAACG

# Variants of: B1
# experimental_details: yeast fitness relative to wild type (ratio to wild type); higher = fitter; tRNA-Arg(CCU), competitive growth, 37 C, YPD
Variants at the floor of the assay were thinned out.

Solved entries (count: 5):
G6A A21G C49U	0.791
A36C A43U	0.575
A20C C24U C61G	≤ 0.5
U2G G6A G25A A37U A40C	≤ 0.5
U3A C4U C5U G48C C49A G67C A70U	0.663

Parameters: items (list). Returns: yeast fitness for each item.
1. U19C A20C C33U U35A G58A
2. G9A G48A G50C
3. C11U U16C U19C

["≤ 0.5", 0.581, 0.929]
